// data source = ChEMBL document CHEMBL3046893

Listed next: entries and their corresponding MIC.
Tested on: Aspergillus niger
Method summary: Antifungal activity against Aspergillus niger MTCC 282
Type: functional
Give just the number in µg/mL; leave the unit off.

Reference set (3 entries):
Compound	Recorded measurement
Cc1ccc2nc(-c3ccccc3N3C(=O)CSC3c3ccc(Cl)cc3Cl)[nH]c2c1 (centres undefined)	500
COc1cc(C2SCC(=O)N2c2ccccc2-c2nc3ccc(C)cc3[nH]2)cc(OC)c1OC (centres undefined)	1000
Cc1ccc2nc(-c3ccccc3N3C(=O)CSC3c3ccc(F)cc3)[nH]c2c1 (centres undefined)	500

Would you kindly look at the next entry?
Problem: Tell me MIC reported for Cc1ccc2nc(-c3ccccc3N3C(=O)CSC3c3ccc([N+](=O)[O-])cc3[N+](=O)[O-])[nH]c2c1 (centres undefined)
Solution: 1000

----------
Test system: Aspergillus niger
Method summary: Antifungal activity against Aspergillus niger MTCC 282
Type: functional
Listed next: entries and their corresponding MIC.
Express your answer as a number followed by its unit.

Reference set (2 entries):
Compound	Test target	Measured quantity	Recorded measurement
Cc1ccc2nc(-c3ccccc3N3C(=O)CSC3c3ccc([N+](=O)[O-])cc3)[nH]c2c1 (stereo not drawn)	Aspergillus niger	MIC	1000 µg/mL
COc1ccc(C2SCC(=O)N2c2ccccc2-c2nc3ccc(C)cc3[nH]2)cc1OC (stereo not drawn)	Aspergillus niger	MIC	1000 µg/mL

Would you kindly look at the next entry?
Problem: Tell me MIC reported for Cc1ccc2nc(-c3ccccc3N3C(=O)CSC3c3ccc(O)cc3)[nH]c2c1 (stereo not drawn)
Solution: 1000 µg/mL
